Biological target: human Nav1.8 (Homo sapiens (Human))
Sequence (Q9Y5Y9 whole entry): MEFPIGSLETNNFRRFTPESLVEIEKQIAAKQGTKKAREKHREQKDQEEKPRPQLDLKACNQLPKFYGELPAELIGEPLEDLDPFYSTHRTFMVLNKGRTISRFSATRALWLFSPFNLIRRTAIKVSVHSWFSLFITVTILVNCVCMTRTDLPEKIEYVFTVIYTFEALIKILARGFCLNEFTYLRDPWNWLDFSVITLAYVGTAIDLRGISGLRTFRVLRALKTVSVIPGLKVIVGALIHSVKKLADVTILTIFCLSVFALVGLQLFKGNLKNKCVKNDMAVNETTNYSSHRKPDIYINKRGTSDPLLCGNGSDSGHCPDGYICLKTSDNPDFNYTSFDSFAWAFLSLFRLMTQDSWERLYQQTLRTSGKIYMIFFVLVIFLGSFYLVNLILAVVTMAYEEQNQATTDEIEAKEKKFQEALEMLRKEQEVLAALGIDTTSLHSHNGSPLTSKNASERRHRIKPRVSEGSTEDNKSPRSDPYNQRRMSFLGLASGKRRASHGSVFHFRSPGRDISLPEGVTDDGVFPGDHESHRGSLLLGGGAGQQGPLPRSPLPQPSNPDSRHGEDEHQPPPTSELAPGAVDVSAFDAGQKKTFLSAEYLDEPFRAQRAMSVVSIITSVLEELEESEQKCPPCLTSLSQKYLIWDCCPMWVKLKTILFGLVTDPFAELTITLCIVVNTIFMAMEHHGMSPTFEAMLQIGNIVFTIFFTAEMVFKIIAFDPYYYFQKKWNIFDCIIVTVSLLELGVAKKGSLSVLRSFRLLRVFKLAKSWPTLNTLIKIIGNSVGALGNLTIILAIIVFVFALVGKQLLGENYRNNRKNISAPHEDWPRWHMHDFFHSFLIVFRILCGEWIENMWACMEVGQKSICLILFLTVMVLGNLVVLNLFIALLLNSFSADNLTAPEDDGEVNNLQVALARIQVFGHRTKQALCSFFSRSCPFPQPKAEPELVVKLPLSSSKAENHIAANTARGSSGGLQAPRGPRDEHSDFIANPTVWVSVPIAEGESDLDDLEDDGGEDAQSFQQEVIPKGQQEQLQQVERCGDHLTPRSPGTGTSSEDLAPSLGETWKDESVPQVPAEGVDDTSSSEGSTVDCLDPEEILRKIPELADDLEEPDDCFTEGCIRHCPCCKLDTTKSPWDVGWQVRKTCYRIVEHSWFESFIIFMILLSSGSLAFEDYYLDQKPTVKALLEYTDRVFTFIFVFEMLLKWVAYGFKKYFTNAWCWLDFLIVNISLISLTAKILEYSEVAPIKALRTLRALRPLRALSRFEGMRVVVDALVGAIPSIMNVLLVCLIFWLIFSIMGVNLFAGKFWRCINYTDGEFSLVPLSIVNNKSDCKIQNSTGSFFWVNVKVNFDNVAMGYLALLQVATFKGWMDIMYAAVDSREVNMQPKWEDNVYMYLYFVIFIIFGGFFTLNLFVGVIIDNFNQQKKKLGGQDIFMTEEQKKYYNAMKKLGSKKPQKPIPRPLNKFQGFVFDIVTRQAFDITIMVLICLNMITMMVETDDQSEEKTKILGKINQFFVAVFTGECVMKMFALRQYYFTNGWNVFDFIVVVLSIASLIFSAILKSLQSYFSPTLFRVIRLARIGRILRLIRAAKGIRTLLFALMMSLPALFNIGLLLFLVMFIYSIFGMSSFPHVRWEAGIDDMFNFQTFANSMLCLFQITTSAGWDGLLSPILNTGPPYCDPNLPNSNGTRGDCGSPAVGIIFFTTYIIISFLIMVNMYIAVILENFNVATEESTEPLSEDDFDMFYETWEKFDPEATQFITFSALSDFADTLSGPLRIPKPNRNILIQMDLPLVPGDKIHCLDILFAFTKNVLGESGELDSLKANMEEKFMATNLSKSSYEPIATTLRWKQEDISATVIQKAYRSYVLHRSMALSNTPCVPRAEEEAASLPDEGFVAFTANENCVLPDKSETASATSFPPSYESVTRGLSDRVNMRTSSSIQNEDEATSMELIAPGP
Assay: E-VIPR optical membrane potential assay with electrical stimulation
Settings: HEK cells expressing human Nav1.8
Label key: condition met means IC50 under 0.05 µM; condition not met means IC50 of 0.05 µM or more.

| Compound | System Under Test | Class |
| --- | --- | --- |
| COc1ccc(Oc2cc(C(F)(F)F)ccc2C(=O)Nc2cc[nH]c(=O)c2)cc1F [Compound 81] | human Nav1.8 (Homo sapiens (Human)) | condition met |
| COc1ccc(Oc2ccc(F)cc2C(=O)Nc2cc[nH]c(=O)c2)c(Cl)c1 [Compound 103] | human Nav1.8 (Homo sapiens (Human)) | condition not met |
| O=C(Nc1cc[nH]c(=O)c1)c1ccc(Cl)cc1Oc1ccc(C(F)(F)F)nc1 [Compound 143] | human Nav1.8 (Homo sapiens (Human)) | condition not met |
| O=C(Nc1cc[nH]c(=O)c1)c1cc(OC(F)(F)F)ccc1Oc1ccccc1 [Compound 41] | human Nav1.8 (Homo sapiens (Human)) | condition not met |
| Cc1cc(F)ccc1Oc1cc(C(F)(F)F)cc(C(F)(F)F)c1C(=O)Nc1cc[nH]c(=O)c1 [Compound 153] | human Nav1.8 (Homo sapiens (Human)) | condition met |

Next up:
Req: Problem: For the compound COc1ccc(F)cc1Oc1ccc(C(F)(F)F)cc1C(=O)Nc1cc[nH]c(=O)c1 [Compound 52] , is IC50 under 0.05 µM?
Resp: condition not met

====

Biological target: UniProt Q9Y5Y9
Test: E-VIPR optical membrane potential assay with electrical stimulation
Settings: HEK cells expressing human Nav1.8
Protocol: Sodium channels are voltage-dependent proteins that can be activated by inducing membrane voltage changes by applying electric fields. […] 7) Read Plate on E-VIPR. […] Data was analyzed and reported as normalized ratios of emission intensities measured in the 460 nm and 580 nm channels. […] The data was further reduced by calculating the initial (Ri) and final (Rf) ratios. […] The response to the stimulus R=Rf/Ri was then calculated and reported as a function of time. […]
Listing of entries alongside the reported IC50.

// solved cases for IC50 follow
| Compound | IC50 |
| --- | --- |
| O=C(Nc1cc[nH]c(=O)c1)c1cc(C(F)(F)F)ccc1Oc1ccc(F)cc1 | 0.054 µM |
| O=C(Nc1cc[nH]c(=O)c1)c1c(Oc2ccc(F)cc2)cccc1C(F)(F)F | 0.38 µM |

Req: Return reported IC50; argument: "Cc1cc(NC(=O)c2cc(C(F)(F)F)ccc2Oc2ccc(F)cc2C)cc(=O)[nH]1"
Resp: 0.113 µM

Req: Return reported IC50; argument: CC1(C)CC1COc1cc(C(F)(F)F)ccc1C(=O)Nc1cc[nH]c(=O)c1 (stereo not drawn)
Resp: 0.485 µM

Req: Return reported IC50; argument: "O=C(Nc1cc[nH]c(=O)c1)c1cc(OC(F)(F)F)ccc1OCCCC(F)(F)F"
Resp: 3.05 µM

Req: Return reported IC50; argument: "O=C(Nc1cc[nH]c(=O)c1)c1ccc(C(F)(F)F)cc1Oc1ccccc1OC(F)(F)F"
Resp: 0.105 µM

Req: Return reported IC50; argument: "CCOc1ccc(Oc2ccc(F)cc2C(=O)Nc2cc[nH]c(=O)c2)cc1"
Resp: 0.3 µM

Req: Return reported IC50; argument: "O=C(Nc1cc[nH]c(=O)c1)c1ccccc1Oc1ccc(F)cc1"
Resp: 1.09 µM

Req: Return reported IC50; argument: "O=C(Nc1cc[nH]c(=O)c1)c1cc(C(F)(F)F)ccc1Oc1ccccc1Cl"
Resp: 0.107 µM
